Assignment: determine reported Cholesterol-free media + simvastatin (0.04 μM) for the given molecules.
# Tested on: NCI-H292 lung cancer cells
# TEST_METHOD_NOTES: FDA drug screening, complete media vs cholesterol-free media with simvastatin (TABLE 2)
# Assay type: cell-based, human
# CONDITION_CONTEXT: NCI-H292 cells, drug in cholesterol-free media with simvastatin 0.04 μM
Counter-ions that a name gives are not always drawn.
Give your answer as a number; write no unit.

Measured Cholesterol-free media + simvastatin (0.04 μM), CC(=O)[C@H]1CC[C@H]2[C@@H]3C[C@H](C)C4=CC(=O)CC[C@]4(C)[C@H]3[C@@H](O)C[C@]12C : 1.51

response.value for CN1CCCC(CC2c3ccccc3Sc3ccccc32)C1 (stereo not shown) [Metixene hydrochloride hydrate] (field: Cholesterol-free media + simvastatin (0.04 μM)) = 1.206

Notebook: CCCN1CCCC[C@H]1C(=O)Nc1c(C)cccc1C [Ropivacaine (hydrochloride)] , Cholesterol-free media + simvastatin (0.04 μM) read as 1.189

Value of measured Cholesterol-free media + simvastatin (0.04 μM) for the entry O=c1ccc2ccc(O)c(O)c2o1 : 1.124

// sample COC(=O)[C@H]1[C@H]2C[C@@H]3c4[nH]c5ccccc5c4CCN3C[C@H]2C[C@@H](OC(=O)c2cc(OC)c(OC)c(OC)c2)[C@@H]1OC , its Cholesterol-free media + simvastatin (0.04 μM) was 1.05

The reported value for CN1C(=O)CC(c2ccccc2)C1=O (stereo not shown) [Phensuximide] in terms of Cholesterol-free media + simvastatin (0.04 μM) is 1.556

Value of Cholesterol-free media + simvastatin (0.04 μM) reported for the molecule Cc1ccc(C(=O)c2cc(O)c(O)c([N+](=O)[O-])c2)cc1 is 1.114

// recorded Cholesterol-free media + simvastatin (0.04 μM) for O=C(O)c1ccccc1Nc1cccc(C(F)(F)F)c1 : 1.298

Reported Cholesterol-free media + simvastatin (0.04 μM) for COc1ccc(CCN(C)CCC[C@@](C#N)(c2ccc(OC)c(OC)c2)C(C)C)cc1OC.Cl [(S)-Verapamil (hydrochloride)] was 1.086

Query Nc1ccc(C(=O)NCC(=O)[O-])cc1.[Na+] [Aminohippurate (sodium)] yields Cholesterol-free media + simvastatin (0.04 μM) of 1.368

For reference, reported Cholesterol-free media + simvastatin (0.04 μM) for OC(CCN1CCCCC1)(c1ccccc1)C1CCCCC1 (stereo not shown) [Trihexyphenidyl (hydrochloride)] stands at 0.9099

For reference, reported Cholesterol-free media + simvastatin (0.04 μM) for COC1=CC(=O)C[C@@H](C)[C@]12Oc1c(Cl)c(OC)cc(OC)c1C2=O stands at 1.385

// Cholesterol-free media + simvastatin (0.04 μM) lookup, molecule = CCN(CC)C(=O)c1cccc(C)c1 [Diethyltoluamide] , result: 1.302

Reported Cholesterol-free media + simvastatin (0.04 μM) of N#CC[C@H](C1CCCC1)n1cc(-c2ncnc3[nH]ccc23)cn1 [Ruxolitinib (S enantiomer)] : 0.9634

For c1cnc(N2CCN(Cc3ccc4c(c3)OCO4)CC2)nc1 the molecule record lists Cholesterol-free media + simvastatin (0.04 μM) as 1.189

Briefly, Cholesterol-free media + simvastatin (0.04 μM) measured for Cc1ccc(C(C)C)c(O)c1 : 1.184

* * *

# System: NCI-H292 lung cancer cells
# TEST_METHOD_NOTES: FDA drug screening, complete media vs cholesterol-free media with simvastatin (TABLE 2)
# Assay type: cell-based, human
Counter-ions that a name gives are not always drawn. Peptide text beside a SMILES is read from it.
VALUE_TYPE: Complete Media
Give the value as a plain number.

The compound identified as N=C(N)NCCCC(N)C(=O)O (racemic) registered its Complete Media at 0.9776

Measured Complete Media, NCCCC[C@H](NC(=O)[C@@H]1CCCN1C(=O)[C@@H]1CSSC[C@H](N)C(=O)N[C@@H](Cc2ccccc2)C(=O)N[C@@H](Cc2ccccc2)C(=O)N[C@@H](CCC(N)=O)C(=O)N[C@@H](CC(N)=O)C(=O)N1)C(=O)NCC(N)=O [Felypressin] (HELM PEPTIDE1{C.F.F.Q.N.C.P.K.G.[am]}$PEPTIDE1,PEPTIDE1,1:R3-6:R3$$$V2.0) : 0.9792

Recorded Complete Media (compound O=C(O)[C@H](O)[C@@H](O)[C@H](O)[C@H](O)CO ): 0.9995

The recorded Complete Media for CN1CCC(=C2c3ccccc3CCn3c(C=O)cnc32)CC1 is 0.9908

CCN1CCCC(OC(=O)C(c2ccccc2)c2ccccc2)C1 (stereo not shown) [Piperidolate] yielded Complete Media of 1.487

For record Cc1cc2c(s1)Nc1ccccc1N=C2N1CCN(C)CC1 the listed Complete Media is 1.489

Looking up O=C(OCC(O)CO)c1ccccc1Nc1ccnc2cc(Cl)ccc12 (stereo not shown) [Glafenine (hydrochloride)] , I found its Complete Media recorded as 0.9245

response.value for CC(=O)O[C@H]1C[C@@H]2CC[C@@H]3[C@H](CC[C@@]4(C)[C@H]3C[C@H]([N+]3(C)CCCCC3)[C@@H]4OC(C)=O)[C@@]2(C)C[C@@H]1N1CCCCC1.[Br-] [Vecuronium (bromide)] (field: Complete Media) = 0.9534

So, OCc1ccc(O[C@@H]2O[C@H](CO)[C@@H](O)[C@H](O)[C@H]2O)cc1 ? Its Complete Media was 1.355

Lookup result for NCCCCCC(=O)O ; measured Complete Media: 1.745

These data points were gathered from patent US20250144067A1.
